# credit: patent EP4786466A1

System: MCF7 breast cancer cell lines
ASSAY INFO: Cell viability analysis, WST-8 assay, MCF7
CONDITION NOTES: Homo sapiens, MCF7, 72 h, read-out: Cell viability (%) WST-8, MCF7 (1 µM), compound 1 µM, 72 hours
Reported values of viability at 1 µM for individual entries

COMPOUND: c1ccc2sc(-c3ccc(Nc4nc(Nc5cc(C6CC6)[nH]n5)c5ccccc5n4)cc3)nc2c1 [compound 4m]
UNIT: %
viability at 1 µM: 110
--
COMPOUND: FC(F)(F)c1ccc(C2=CCN(c3nc(Nc4cc(C5CC5)[nH]n4)c4ccccc4n3)CC2)cc1 [compound 6f]
UNIT: %
viability at 1 µM: 91.9
--
COMPOUND: CC(C)(C)OC(=O)NCCNC(=O)c1ccc(Nc2nc(Nc3cc(C4CC4)[nH]n3)c3ccccc3n2)cc1 [compound 4w]
UNIT: %
viability at 1 µM: 72
--
COMPOUND: CN(C)S(=O)(=O)c1ccc(Nc2nc(Nc3ccc(CC#N)cc3)nc3ccccc23)cc1 [compound 25a]
UNIT: %
viability at 1 µM: 105
--
COMPOUND: CC(C)(C)OC(=O)Nc1cccc(Nc2nc(Nc3ccc(CC#N)cc3)nc3ccccc23)c1 [compound 3m]
UNIT: %
viability at 1 µM: 116
--
COMPOUND: CC(C)(C)OC(=O)N1CC=C(c2nc(Nc3cc(C4CC4)[nH]n3)c3ccccc3n2)CC1 [compound 7]
UNIT: %
viability at 1 µM: 84.2

---

MEASURED ON: Recombinant GST-TAG-MASTL (Homo sapiens, UniProt Q96GX5)
Construct: GST; purchased Thermo Fisher Scientific
Sequence (Q96GX5 whole entry): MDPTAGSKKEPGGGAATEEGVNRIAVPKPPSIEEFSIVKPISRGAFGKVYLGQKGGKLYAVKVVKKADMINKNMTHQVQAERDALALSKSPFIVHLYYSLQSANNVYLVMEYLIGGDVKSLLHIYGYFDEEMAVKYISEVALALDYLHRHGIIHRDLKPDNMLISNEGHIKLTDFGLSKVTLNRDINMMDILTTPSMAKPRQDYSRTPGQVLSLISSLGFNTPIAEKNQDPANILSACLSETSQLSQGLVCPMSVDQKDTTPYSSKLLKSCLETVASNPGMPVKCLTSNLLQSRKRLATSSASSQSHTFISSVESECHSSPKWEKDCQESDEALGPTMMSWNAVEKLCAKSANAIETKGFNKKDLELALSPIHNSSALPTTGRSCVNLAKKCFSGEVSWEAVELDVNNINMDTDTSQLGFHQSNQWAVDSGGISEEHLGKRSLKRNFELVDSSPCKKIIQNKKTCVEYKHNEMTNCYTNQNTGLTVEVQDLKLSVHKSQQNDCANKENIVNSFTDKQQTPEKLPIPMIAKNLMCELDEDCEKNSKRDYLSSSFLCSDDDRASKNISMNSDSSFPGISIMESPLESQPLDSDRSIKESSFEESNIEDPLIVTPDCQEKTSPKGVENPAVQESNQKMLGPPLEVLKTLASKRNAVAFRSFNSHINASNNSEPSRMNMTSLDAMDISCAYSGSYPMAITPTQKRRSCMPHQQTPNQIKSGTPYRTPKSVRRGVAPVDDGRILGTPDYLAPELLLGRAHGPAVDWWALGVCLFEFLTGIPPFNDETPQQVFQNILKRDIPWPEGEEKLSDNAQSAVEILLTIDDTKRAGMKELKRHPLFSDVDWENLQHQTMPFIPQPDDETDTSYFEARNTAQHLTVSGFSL
ASSAY INFO: HTRF-based kinase assay (HTRF KinEASE assay kit)
Format: biochemical
CONDITION NOTES: footnote b: concentration 10 µM; read-out: MASTL activity (%) HTRF
Where a name gives a salt, the structure may show the parent alone.
Reported values of activity at 10 µM for individual entries
ASSAY ENDPOINT: activity at 10 µM (%)

COMPOUND: COc1ccc(CNc2nc(Nc3cc(C4CC4)[nH]n3)c3ccccc3n2)cc1 [compound 4cd]
ASSAY ENDPOINT: activity at 10 µM
UNIT: %
MEAS VALUE: 20.3
--
COMPOUND: O=C(Nc1ccc(F)cc1)N1CCN(c2nc(Nc3cc(C4CC4)[nH]n3)c3ccccc3n2)CC1 [compound 12d]
ASSAY ENDPOINT: activity at 10 µM
UNIT: %
MEAS VALUE: 14.1
--
COMPOUND: CNS(=O)(=O)c1ccc(Nc2nc(Nc3cc(C4CC4)[nH]n3)c3ccccc3n2)cc1 [compound 4h]
ASSAY ENDPOINT: activity at 10 µM
UNIT: %
MEAS VALUE: 17.6
--
COMPOUND: CS(=O)(=O)Cc1ccc(Nc2nc(Nc3cc(C4CC4)[nH]n3)c3ccccc3n2)cc1 [compound 4f]
ASSAY ENDPOINT: activity at 10 µM
UNIT: %
MEAS VALUE: 29
--
COMPOUND: FC(F)(F)c1cc(Nc2nc(Nc3cc(C4CC4)[nH]n3)c3ccccc3n2)ccc1Cl [compound 4k]
ASSAY ENDPOINT: activity at 10 µM
UNIT: %
MEAS VALUE: 59.2
--
COMPOUND: O=S(=O)(c1cccs1)N1CC2CC1CN2c1nc(Nc2cc(C3CC3)[nH]n2)c2ccccc2n1 (centres unmarked) [compound 15ab]
ASSAY ENDPOINT: activity at 10 µM
UNIT: %
MEAS VALUE: 17.3
--
COMPOUND: O=S(=O)(c1c(F)cccc1F)N1CC2CC1CN2c1nc(Nc2cc(C3CC3)[nH]n2)c2ccccc2n1 (centres unmarked) [compound 15p]
ASSAY ENDPOINT: activity at 10 µM
UNIT: %
MEAS VALUE: 180
--
COMPOUND: O=S(=O)(c1ccc2ccccc2c1)N1CC2CC1CN2c1nc(Nc2cc(C3CC3)[nH]n2)c2ccccc2n1 (centres unmarked) [compound 15y]
ASSAY ENDPOINT: activity at 10 µM
UNIT: %
MEAS VALUE: 18.5
--
COMPOUND: OCCNc1nc(Nc2cc(C3CC3)[nH]n2)c2ccccc2n1 [compound 4cf, hydrochloride]
ASSAY ENDPOINT: activity at 10 µM
UNIT: %
MEAS VALUE: 23.7
--
COMPOUND: COc1cccc(S(=O)(=O)N2CC3CC2CN3c2nc(Nc3cc(C4CC4)[nH]n3)c3ccccc3n2)c1 (centres unmarked) [compound 15r]
ASSAY ENDPOINT: activity at 10 µM
UNIT: %
MEAS VALUE: 22.7
--
COMPOUND: c1ccc(CCNc2nc(Nc3cc(C4CC4)[nH]n3)c3ccccc3n2)cc1 [compound 4ce]
ASSAY ENDPOINT: activity at 10 µM
UNIT: %
MEAS VALUE: 14.1
